# reported GI50; entries follow
- Tested on: OVCAR-3
- method-notes: NCI tumour cell line growth inhibition, 48 h
Activity calls are given as the source filed them. Cut-off read from the data, not from the text of the source: active = GI50 up to about 1.1 µM and inactive = higher.
measured-property: GI50

[
  {
    "compound": "O=C1OCN(c2ccccc2)C12CCN(Cc1ccccc1)CC2",
    "result": "> 10 µM (inactive)"
  },
  {
    "compound": "COC(=O)[C@@]12CCCC(=O)[C@@H]1[C@H]1CCCC[C@H]12",
    "result": "> 100 µM (inactive)"
  },
  {
    "compound": "CC(=O)c1c(C)cc2cccc(OC3OC(CO)C(O)C(O)C3O)c2c1O.CC1OC(O)C(O)C(O)C1O (stereo not given)",
    "result": "> 100 µM (inactive)"
  },
  {
    "compound": "C[N+]12CCN(c3ccccc31)c1ccccc12.[O-][Cl+3]([O-])([O-])[O-]",
    "result": "3.44 µM (inactive)"
  },
  {
    "compound": "C=C(CO)C(=O)OC1CC(=C)C2CC(O)C(C)C2C2OC(=O)C(=C)C12 (stereo not given)",
    "result": "16 µM (inactive)"
  }
]

* * *

# reported GI50; entries follow
- Tested on: SF-539
- method-notes: NCI tumour cell line growth inhibition, 48 h
The source made the active and inactive calls. Rule as the data show it: active = GI50 up to about 1.1 µM and inactive = higher.

[
  {
    "compound": "COc1ccc(-c2nnc3n(C)c4ccccc4n3c2=O)cc1",
    "GI50": "32.7 µM (inactive)"
  },
  {
    "compound": "NCC[Se][Se]CCN",
    "GI50": "10.6 µM (inactive)"
  },
  {
    "compound": "COc1ccc(/C=C/C(=O)c2sc(Nc3ccc([N+](=O)[O-])cc3)nc2C)cc1",
    "GI50": "59.7 µM (inactive)"
  },
  {
    "compound": "CSc1nc(NC2OCC(OC(C)=O)C(OC(C)=O)C2OC(C)=O)c(/N=C\\C=N\\c2c(NC3OCC(OC(C)=O)C(OC(C)=O)C3OC(C)=O)nc(SC)n(C)c2=O)c(=O)n1C (stereo unspecified)",
    "GI50": "> 100 µM (inactive)"
  },
  {
    "compound": "CC1=NN(C(=O)CC(=O)Nc2ccccc2Cl)C(=O)C1/N=N/c1ccc(C(=O)O)cc1 (stereo unspecified)",
    "GI50": "> 100 µM (inactive)"
  },
  {
    "compound": "CCOC(=O)c1ccc(NC(=O)O/N=C(/Cl)CC)cc1",
    "GI50": "17.6 µM (inactive)"
  },
  {
    "compound": "CC(C)CCNC(=O)c1ccc(CNC(=O)/C=C/c2csc(-c3ccccc3)n2)cc1",
    "GI50": "> 100 µM (inactive)"
  },
  {
    "compound": "COc1ccc(/C(=N/NC(=O)NN)C(c2ccc(OC)cc2)C2(O)CNc3c(Cl)cc(Cl)cc32)cc1 (stereo unspecified)",
    "GI50": "> 100 µM (inactive)"
  },
  {
    "compound": "Nc1nc(N)c(CCCCc2ccccc2)c(C=O)n1",
    "GI50": "18.9 µM (inactive)"
  },
  {
    "compound": "N#C/C(=C\\c1cccc(Br)c1)c1nc2ccccc2c(=O)[nH]1",
    "GI50": "47.9 µM (inactive)"
  },
  {
    "compound": "CCCCS(=O)(=O)CCC(N)C(=O)O (stereo unspecified)",
    "GI50": "> 100 µM (inactive)"
  },
  {
    "compound": "Fc1ccc(C(OCCN2CCC3CCC(C2)N3C/C=C/c2cccs2)c2ccc(F)cc2)cc1 (stereo unspecified)",
    "GI50": "10.6 µM (inactive)"
  },
  {
    "compound": "C1=CCC[C@@H]2CN3CCCC/C=C\\CCCC[C@H]4C[C@H](CN(CCCCCCCC1)C4)[C@H]2CC3",
    "GI50": "7.98 µM (inactive)"
  },
  {
    "compound": "CN(C)CCCNC(=O)c1c(O)c2ccccc2[nH]c1=O",
    "GI50": "> 100 µM (inactive)"
  },
  {
    "compound": "O=[N+]([O-])C1(CO)COC2(OC1)c1ccccc1-c1ccccc12",
    "GI50": "> 69.3 µM (inactive)"
  },
  {
    "compound": "CO/N=C/c1cc(OC)c(OC)c(OC)c1",
    "GI50": "> 100 µM (inactive)"
  }
]

* * *

- Test system: TK-10
- method-notes: NCI tumour cell line growth inhibition, 48 h
Calls of active or inactive are those of the source. Cut-off read from the data, not from the text of the source: active = GI50 up to about 1.1 µM and inactive = higher.
Outcomes: yes (active), no (inactive)

[
  {
    "compound": "CC(C)C(O)(C(C)C)C(C)C",
    "tested-system": "TK-10",
    "assigned-label": "no"
  },
  {
    "compound": "CC1(C)OC[C@@]2([C@@H]3CC[C@@H](C3)C2(C)C)N1O",
    "tested-system": "TK-10",
    "assigned-label": "no"
  },
  {
    "compound": "Nc1cccc(S(=O)(=O)Nc2nnc(S(N)(=O)=O)s2)c1",
    "tested-system": "TK-10",
    "assigned-label": "no"
  },
  {
    "compound": "COc1cc2c(cc1O)CCN(C)[C@H]2Cc1ccc(Oc2c(O)c(OC)cc3c2C[C@H]2c4c(c(OC)c(OC)c(OC)c4-3)CCN2C)cc1 [THALIFABERIDINE]",
    "tested-system": "TK-10",
    "assigned-label": "no"
  },
  {
    "compound": "NC(=O)COc1ccccc1",
    "tested-system": "TK-10",
    "assigned-label": "no"
  },
  {
    "compound": "COc1cc2c(cc1OCCCCCCCCCCN1C(=O)c3cccc4cccc(c34)C1=O)N=C[C@@H]1CCCN1C2=O",
    "tested-system": "TK-10",
    "assigned-label": "no"
  },
  {
    "compound": "NCC[Se][Se]CCN",
    "tested-system": "TK-10",
    "assigned-label": "no"
  },
  {
    "compound": "OCC[N+]12CCCN1CCC2",
    "tested-system": "TK-10",
    "assigned-label": "no"
  },
  {
    "compound": "CC(=O)OCC(=O)OC[C@H](OCc1ccccc1)[C@@H]1[C@H](OC(C)=O)C(=O)N1Cc1ccccc1",
    "tested-system": "TK-10",
    "assigned-label": "no"
  },
  {
    "compound": "COc1ccc(/C=C/C(=O)c2sc(Nc3ccc([N+](=O)[O-])cc3)nc2C)cc1",
    "tested-system": "TK-10",
    "assigned-label": "no"
  },
  {
    "compound": "Cc1cc2c(cc1Cl)Sc1n[nH]c(=O)n1S2(=O)=O",
    "tested-system": "TK-10",
    "assigned-label": "no"
  },
  {
    "compound": "C=C1N(S(=O)(=O)c2ccc(C)cc2)C(=O)OCC12CCCC2",
    "tested-system": "TK-10",
    "assigned-label": "no"
  },
  {
    "compound": "CC[n+]1cnc(N)c2c(-c3ccc(Cl)cc3)cn(-c3ccc(C)cc3)c21",
    "tested-system": "TK-10",
    "assigned-label": "no"
  },
  {
    "compound": "O=C(CSc1nc2ccc(I)cc2c(=O)n1Cc1ccccc1)NN1C(=O)CSC1c1ccccc1 (stereo not given)",
    "tested-system": "TK-10",
    "assigned-label": "no"
  },
  {
    "compound": "N#CC1=C(N)OC2=C(CCCc3ccccc32)C1c1ccc([N+](=O)[O-])cc1 (stereo not given)",
    "tested-system": "TK-10",
    "assigned-label": "no"
  },
  {
    "compound": "CC(=O)OCC1OC(n2c(N)c(C#N)c(C)c(C#N)c2=S)C(OC(C)=O)C(OC(C)=O)C1OC(C)=O (stereo not given)",
    "tested-system": "TK-10",
    "assigned-label": "no"
  },
  {
    "compound": "C=C1C(=O)O[C@H]2C[C@@H](C)[C@@H]3CC(=O)OC[C@@]3(C)CC12 (stereo not given in full)",
    "tested-system": "TK-10",
    "assigned-label": "no"
  },
  {
    "compound": "COc1ccc(-c2nc(N3CCCC3)no2)cc1",
    "tested-system": "TK-10",
    "assigned-label": "no"
  },
  {
    "compound": "OC12C3C4CC5C(C4[C@@H]1Br)C2[C@@](O)(c1c(F)c(F)c(F)c(F)c1F)C53 (stereo not given in full)",
    "tested-system": "TK-10",
    "assigned-label": "no"
  },
  {
    "compound": "CC1(C)CCC[C@@]2(C)C1CC[C@H]1CC(O)C3(C)CCC12C3 (stereo not given in full)",
    "tested-system": "TK-10",
    "assigned-label": "no"
  },
  {
    "compound": "CC1CC(c2ccc([N+](=O)[O-])cc2)=Nc2ccccc2[S+]1[O-] (stereo not given)",
    "tested-system": "TK-10",
    "assigned-label": "no"
  },
  {
    "compound": "COc1ccc(NC(=S)Nc2c(C)n(C)n(-c3ccccc3)c2=O)cc1",
    "tested-system": "TK-10",
    "assigned-label": "no"
  },
  {
    "compound": "COc1ccc(/C=C2\\Cc3ccccc3C2=O)cc1OC",
    "tested-system": "TK-10",
    "assigned-label": "no"
  },
  {
    "compound": "O=C1OCN(c2ccccc2)C12CCN(Cc1ccccc1)CC2",
    "tested-system": "TK-10",
    "assigned-label": "no"
  },
  {
    "compound": "N#Cc1nc(C2CCC2)oc1N",
    "tested-system": "TK-10",
    "assigned-label": "no"
  },
  {
    "compound": "CC1=NN(C(=O)CC(=O)Nc2ccccc2Cl)C(=O)C1/N=N/c1ccc(C(=O)O)cc1 (stereo not given)",
    "tested-system": "TK-10",
    "assigned-label": "no"
  },
  {
    "compound": "COC(=O)C(Cc1c(-c2[nH]c3ccccc3c2CC(NC(C)=O)C(=O)OC)[nH]c2ccccc12)NC(C)=O (stereo not given)",
    "tested-system": "TK-10",
    "assigned-label": "no"
  },
  {
    "compound": "COC(=O)C1=C(O)C(C(=O)OC)[C@]2(O)[C@H](C(=O)OC)[C@H]1C[C@@H](c1ccc(C(F)(F)F)cc1)[C@H]2C(=O)OC (stereo not given in full)",
    "tested-system": "TK-10",
    "assigned-label": "no"
  },
  {
    "compound": "COc1cc(OC)cc(N2CCC(c3c(N)nc(N)nc3Cl)CC2)c1",
    "tested-system": "TK-10",
    "assigned-label": "no"
  },
  {
    "compound": "CCOC(=O)NC(C(C(=O)OCC)C(=O)OCC)(C(F)(F)F)C(F)(F)F",
    "tested-system": "TK-10",
    "assigned-label": "no"
  },
  {
    "compound": "CC[C@@]1(O)C(=O)OCc2c1cc1n(c2=O)Cc2cc3cc(OC)ccc3nc2-1",
    "tested-system": "TK-10",
    "assigned-label": "no"
  },
  {
    "compound": "COc1cc([C@@H]2c3cc4c(cc3C[C@H]3COC(=O)[C@@H]32)OCO4)cc(OC)c1OC [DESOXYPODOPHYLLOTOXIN]",
    "tested-system": "TK-10",
    "assigned-label": "yes"
  },
  {
    "compound": "Cc1ccc(S(=O)(=O)OC2C3OC(C)(C)OC3OC2C(c2cc(O)c3c(c2O)C(=O)c2ccccc2C3=O)c2cc(O)c3c(c2O)C(=O)c2ccccc2C3=O)cc1 (stereo not given)",
    "tested-system": "TK-10",
    "assigned-label": "no"
  },
  {
    "compound": "N#CC1(Cc2ccccc2)CCCCN1C(=O)c1ccccc1 (stereo not given)",
    "tested-system": "TK-10",
    "assigned-label": "no"
  },
  {
    "compound": "N#CC(NNC(=O)Cc1ccccc1)c1c(O)ccc2ccccc12 (stereo not given)",
    "tested-system": "TK-10",
    "assigned-label": "no"
  },
  {
    "compound": "CCOC(=O)c1cc(/C=C/C(C)=C/C(=O)OC)oc1-c1ccccc1",
    "tested-system": "TK-10",
    "assigned-label": "no"
  },
  {
    "compound": "COc1cc(/C=C2\\N=C(c3ccccc3)N(c3nc4c(Cl)cc(Cl)cc4s3)C2=O)ccc1O",
    "tested-system": "TK-10",
    "assigned-label": "no"
  },
  {
    "compound": "NC1=NC(c2ccccc2)CC(c2cc(Cl)ccc2O)=N1 (stereo not given)",
    "tested-system": "TK-10",
    "assigned-label": "no"
  },
  {
    "compound": "N#CCC(=O)N/N=C(\\CCN1CCCC1)CC(c1ccccc1)c1c(O)c2ccccc2oc1=O (stereo not given)",
    "tested-system": "TK-10",
    "assigned-label": "no"
  },
  {
    "compound": "CCOc1ccc(/C=N/[N+](C)(C)C)cc1OCC",
    "tested-system": "TK-10",
    "assigned-label": "no"
  }
]
